meta.source: PubChem BioAssay (NCI)

# Test system: SN12C renal
# assay-summary: NCI tumour cell line growth inhibition, 48 h
assay-readout: TGI

Cc1cn2c(/C=C3/C(=O)Nc4ccc(F)cc43)c(C)nc2s1; 27.4 µM
C[N+](C)([O-])Cc1cc(-c2ccccc2)ccc1O; > 100 µM
Cc1c(-c2ccccc2)c(C#N)c2nnn(-c3cccc(Cl)c3)c(=O)n12; > 100 µM
CCOc1c(C#N)c2c(N)ncnc2n1C1OC(CO)C(O)C1O (stereo not drawn); > 100 µM
O=C(O)c1ccc(Nc2nc3cc(C(F)(F)F)ccc3nc2-c2ccccc2)cc1; 97.6 µM
CN1CCN(Cc2ccc(NC(=O)c3cncc(C#Cc4cnn5ccccc45)c3)cc2C(F)(F)F)CC1; 3.85 µM
Nc1ccccc1N=Nc1c(S(=O)(=O)O)cc2cc(S(=O)(=O)O)cc(O)c2c1O; > 100 µM
O=C1C(Cl)C(c2cc3cc(Br)ccc3nc2Cl)N1c1c(Cl)cccc1Cl (stereo not drawn); > 25 µM

Consider the additional compound presented here.
Entry O=C(CN(c1ccc(S(=O)(=O)O)cc1)c1ccc(S(=O)(=O)O)cc1)Nn1cnc2ccc(S(=O)(=O)N(c3ccc(S(=O)(=O)O)cc3)c3ccc(S(=O)(=O)O)cc3)cc2c1=O , system SN12C renal: what TGI was measured?
> 100 µM
